Measured melting point by item

Example results:
compound | test value
FC(F)(F)C1(c2cc(Cl)cc(Cl)c2)CC(c2ccc(-n3ccnc3)cc2)=NO1 (centres undefined) | 193 to 195 °C
C=C(C)COc1cc(C)c2c(c1C)CC(C)(C)N2C=O | 83 to 95 °C
CCCOC(=O)C(Br)=CC1C(C(=O)OC(C#N)c2cccc(Oc3ccccc3)c2)C1(C)C (centres undefined) | 64 °C
CC12CCC(=O)C=C1CCC1C2CCC2(C)C(OC(=O)CBr)CCC12 (centres undefined) | 144 to 145 °C
Cc1ccc2[nH]c(NC(=O)c3ccccc3)nc(=O)c2c1 | 240 to 242 °C
Cc1ccc(-c2ncc(NC(=O)OCc3ccccc3)c(=O)n2CC(=O)NC(Cc2ccccc2)C(=O)C(F)(F)F)cc1 (centres undefined) | 173 to 175 °C
Cc1ccc(NC(=O)c2cccc(CN3C(=O)C4(COc5cc6c(cc54)CCO6)c4ccccc43)c2)c(C)c1 (centres undefined) | 234 to 235 °C
CC(=O)Oc1ccc(C2(c3ccc(OC(C)=O)cc3)C(c3ccccc3)C2(Cl)Cl)cc1 (centres undefined) | 74 to 75 °C

Attention now turns to another entry.
stdin: Given CCSc1cc(S(N)(=O)=O)sc1SCC , state its recorded melting point.
stdout: 82 to 84 °C

----------
Measured melting point by item

Example results:
compound | test value
Cc1ccc(N2CCN(CCC3CN(C)C(=O)O3)CC2)cc1 (stereo not given) | 96 to 97 °C
NS(=O)(=O)c1ccc(-n2nc(CCCNC(=O)NC3CCCCCC3)cc2-c2ccccc2)cc1 | 164 to 170 °C
O=C(O)C(=O)c1ccc(OCCCCCCc2cccc(O)c2O)cc1 | 127 to 130 °C
Cc1ccc(-c2c(NS(=O)(=O)c3ccc(C(C)(C)C)cc3)ncnc2OCCOc2ccc(N)cc2)cc1 | 190 to 191 °C
O=C1Nc2ccccc2C1CCCCN1CCN(c2ccc(F)cc2)CC1 (stereo not given) | 113 to 115 °C

stdin: Given O=S1(=O)C=CC(c2ccccc2)(c2ccccc2)CC1 , state its recorded melting point.
stdout: 166 °C

stdin: Do the same for O=C(C#Cc1ccc(Cl)cc1)Nc1ccc2c(ccn2CCN2CCCC2)c1 please
stdout: 127 to 129 °C

stdin: Do the same for Cc1nc2ccccn2c1-c1csc(Nc2ccc(C(=O)Nc3ccccc3N)cc2)n1 please
stdout: 161 to 165 °C

stdin: Do the same for CC(C)(CN1CCC(CNC(=O)N2C(=O)C3(CCCC3)c3ccccc32)CC1)C(=O)O please
stdout: 189 °C

stdin: Do the same for CCOC(=O)Cn1c(C)cc2c1CCCC2=O please
stdout: 101 to 104 °C

----------
measured quantity: melting point

Example results:
compound | melting point
CO/C=C(/C(=O)OC)c1ccccc1Oc1cc(Cl)nc(Cl)n1 | 88 to 90 °C
CC(C)(C)OC(=O)c1ccc(C(=O)OC(C)(C)C)cc1 | 117 to 118 °C
CCOc1ccc(N2CCN(c3c(C)c4c(c(OC)c3C)OC(C)C4)CC2)cc1 (stereo not drawn) | 117 to 119 °C
CC(=O)Nc1ccc(F)cc1OCCOc1ccc(N)cc1F | 134 to 136 °C
Nn1cnn(C2CCc3ccccc3C2)c1=S (stereo not drawn) | 147 to 150 °C

stdin: Given CCCc1ccnc(C(N)=O)c1C(N)=O , state its recorded melting point.
stdout: 178 to 179 °C

stdin: Do the same for CC1Cc2c(Cl)ccc3c(=O)c(C(=O)O)cn1c23 (stereo not drawn) please
stdout: 288 to 290 °C

----------
Measured melting point by item

Example results:
molecule | melting point
CNC(=O)N(OC)c1ccc(Oc2ccc3sncc3c2)c(Cl)c1 | 128 °C
COc1ccc(C2(C#Cc3nccn3C)CCC(=O)CC2)cc1OC1CCCC1 | 137 to 138 °C
COC(=O)C1=C(C)NC(C)=C(C(=O)OCC(O)CO)C1c1cccc([N+](=O)[O-])c1 (stereo not given) | 49 to 53 °C

stdin: Given CCC1=C(c2cccc(F)c2)C(=O)N(c2cccc(C(F)(F)F)c2)C1 , state its recorded melting point.
stdout: 77.5 to 79 °C

stdin: Do the same for CCCCc1nc2c(N)nc3ccccc3c2n1CCCNC(=S)Nc1ccccc1 please
stdout: 143 to 144 °C

----------
Measured melting point by item

compound | measured quantity | test value
Cc1c(C)c(C(CO)c2ccc(C(C)C)cc2)c(O)c(C)c1Br (stereo not given) | melting point | 96 to 97 °C
NS(=O)(=O)c1cc(C(=O)Nc2ccccc2)ccc1F | melting point | 219 to 221 °C
CCCCc1nc(C(O)C(C)C)c(C#N)n1Cc1ccc(-c2ccccc2-c2nnnn2C(c2ccccc2)(c2ccccc2)c2ccccc2)cc1 (stereo not given) | melting point | 127 to 128 °C
Cc1noc(-c2ccccc2)c1CCC(N)=O | melting point | 149 to 151 °C
CCCCCCn1c(C)c(C(=O)N(CCCC)CCCC)c2c(CN3CCCCC3)c(O)c(C(=O)CC)cc21 | melting point | 124 to 125 °C

stdin: Given COc1ccc(CCCN(CCCc2ccc(OC)c(OC)c2)C(=O)N(C)O)cc1OC , state its recorded melting point.
stdout: 93 to 94 °C

stdin: Do the same for CCOC(=O)c1cn2c(n1)CN(C(=O)CCl)c1ccccc1-2 please
stdout: 178 to 183 °C

stdin: Do the same for O=Cc1ccc(OCCc2coc(-c3ccccc3)n2)cc1 please
stdout: 92 to 97 °C

stdin: Do the same for NS(=O)(=O)c1ccc(-n2nc(C(F)(F)F)c(Cl)c2-c2ccc(-c3cncs3)c(Cl)c2)cn1 please
stdout: 191 to 193 °C

stdin: Do the same for Cc1ccc(NC(=O)c2cccc(C(F)(F)F)c2)cc1-c1ccc2cnncc2c1 please
stdout: 97 to 100 °C

stdin: Do the same for CCn1ncc2c1ncc1c(N3CCN(C)CC3)nc3cc(C)nn3c12 please
stdout: 167 to 169 °C

stdin: Do the same for CCC1(c2cccs2)NC(=O)NC1=O (stereo not given) please
stdout: 173 to 174 °C

stdin: Do the same for O=C(CCCN1CCC(NC(=O)c2ccccc2)CC1)c1ccc(Cl)cc1 please
stdout: 243 to 244 °C

stdin: Do the same for CNCC1Cc2cc(-c3ccccc3)cc(-c3cccc(F)c3)c2O1 (stereo not given) please
stdout: > 250 °C

stdin: Do the same for Fc1ccc2c(C3CCN(CCc4ccccc4)CC3)n[nH]c2c1 please
stdout: 163 to 165 °C

stdin: Do the same for CCOC(=O)C(=CNC1CC1)C(=O)c1c(F)c(F)c(F)c(F)c1N(C)C please
stdout: 122 to 124 °C

stdin: Do the same for O=C(O)CC[C@H](NC(=O)c1ccc(CCn2cnc3nccc-3c2O)cc1)C(=O)O please
stdout: > 230 °C

stdin: Do the same for Cc1noc(NS(=O)(=O)c2sccc2Cc2ccccc2)c1Br please
stdout: 180 to 183 °C

stdin: Do the same for FC(F)(F)/C(=C(\c1ccccc1)c1ccc(OCCN2CCOCC2)cc1)c1ccccc1 please
stdout: 84 to 89 °C

stdin: Do the same for COc1ccc2cc([C@H](C)C(=O)OCCSCCO)ccc2c1 please
stdout: 58 to 61 °C

stdin: Do the same for CC(=O)NC=Cc1ccc(OC(C)=O)cc1 please
stdout: 165 to 166 °C

----------
Measured melting point by item

Example results:
molecule | melting point
O=S(=O)(c1cnn(-c2c(Cl)cc(C(F)(F)F)cc2Cl)c1Br)C(F)(F)F | 90 to 91 °C
CN(C(=O)c1ccc2nonc2c1)[C@H]1CC[C@@H](C#N)CC1 | 180 to 181 °C

Attention now turns to another entry.
stdin: Given COC(=O)CCn1cc(-c2cccnc2)c2cc([N+](=O)[O-])ccc21 , state its recorded melting point.
stdout: 123 to 125 °C

----------
measured quantity: melting point

compound | melting point
O=C(NCCN1CCCCC1)c1nc(NCC(c2ccccc2)c2ccccc2)c2ncn([C@@H]3O[C@H](CO)[C@@H](O)[C@H]3O)c2n1 | 182 °C
CCCCOc1ccc(N2CCN(c3cccc(C)c3)CC2)nn1 | 105 °C
CCCOc1cc(CCCOc2c(CC(=O)O)cccc2OC)n(Cc2ccc(Cl)cc2)n1 | 131 to 132 °C

stdin: Given COc1cc(C#N)ccc1C1=CC(C)(C)Oc2ccc(C#N)cc21 , state its recorded melting point.
stdout: 137 to 139 °C

stdin: Do the same for CC(C)(C)OC(=O)NCc1nc2c(C(F)(F)F)cccc2c(O)c1C(=O)Nc1nccs1 please
stdout: 238 °C

stdin: Do the same for O=C(O)Cc1cc2c(s1)-c1ccccc1CC2 please
stdout: 103 to 105 °C

stdin: Do the same for CNC(=S)CC(=S)N(c1c(C)cccc1C)C(C)C(=O)OC (centres undefined) please
stdout: 119 to 121 °C

stdin: Do the same for CCOC(=O)C1=C(C)NC(CN2C(=O)c3ccccc3C2=O)=C(C(=O)OCC)C1c1ccc(F)cc1 (centres undefined) please
stdout: 144 to 145 °C

stdin: Do the same for Nc1nc(N)nc(-c2ccc(-c3ccccc3[N+](=O)[O-])cc2)n1 please
stdout: > 250 °C
